- method.summary: self-splicing fitness, log relative to wild type (ln ratio); higher = more splicing; Tetrahymena group I intron in knt gene, E. coli kanamycin selection, DiMSum; sequences stand for … in CUCUCU…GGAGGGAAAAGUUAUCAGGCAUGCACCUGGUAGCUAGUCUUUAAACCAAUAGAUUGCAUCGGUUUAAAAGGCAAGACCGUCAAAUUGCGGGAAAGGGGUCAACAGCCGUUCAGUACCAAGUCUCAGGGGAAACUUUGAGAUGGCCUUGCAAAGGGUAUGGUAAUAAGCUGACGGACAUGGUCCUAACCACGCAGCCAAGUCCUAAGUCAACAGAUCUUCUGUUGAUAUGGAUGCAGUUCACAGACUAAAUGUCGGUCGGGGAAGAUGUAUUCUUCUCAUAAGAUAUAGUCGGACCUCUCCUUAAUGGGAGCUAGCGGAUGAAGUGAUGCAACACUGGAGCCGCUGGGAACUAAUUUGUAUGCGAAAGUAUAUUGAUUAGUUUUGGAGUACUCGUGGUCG;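 further: selection with 25 µg/mL kanamycin versus none on LB agar overnight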
- condition.context: 37 °C
Respond with True for self-splicing fitness (ln) values of -2 and above, False for values below.

Check out these entries, answers already filled in.
UACUAGCAAUAUUACGAUAU = False
GGAUAGCAAUAUUACGACCU = True
UAUCAGCAAUAUUACGAUCC = True
CUAGAGCAAUAUUACGAGAA = False
UAUCAGCAAUAUUACGAACA = True

Qu. Given "CGGAAGCAAUAUUACGAUAU" , state whether its self-splicing fitness (ln) is at least -2.
Ans. False

Qu. Confirm if self-splicing fitness (ln) reported for the sequence "CCCUAGCAAUAUUACGAGAG" is -2 or above.
Ans. False

Qu. Is the recorded value of self-splicing fitness (ln) equal to or greater than -2 for this sequence? "GGUCAGCAAUAUUACGGAGU"
Ans. True

Qu. Identify whether the reported self-splicing fitness (ln) of the following sequence is -2 or greater: "GCUGAGCAAUAUUACGGACU"
Ans. True

Qu. Given the entry "ACGGAGCAAUAUUACGAUGG" , answer whether its self-splicing fitness (ln) meets or surpasses -2.
Ans. True

Qu. Hello, I need to know if "GCCUAGCAAUAUUACGAGCG" has measured self-splicing fitness (ln) not below -2. Thanks!
Ans. True

Qu. Please indicate if the recorded self-splicing fitness (ln) for "UGUAAGCAAUAUUACGCUGA" meets or exceeds -2.
Ans. True

Qu. In plain terms: is recorded self-splicing fitness (ln) at least -2 for "CGUCAGCAAUAUUACGUACG" ?
Ans. False

Qu. hey, is self-splicing fitness (ln) for this one >= -2? "AGGUAGCAAUAUUACGCUGC"
Ans. False

Qu. Reported self-splicing fitness (ln) reaches at least -2 for "CACCAGCAAUAUUACGUUAA" ?
Ans. False

Qu. Say whether "ACAAAGCAAUAUUACGUAGA" shows self-splicing fitness (ln) of -2 or more.
Ans. True

* * *

- method.summary: self-splicing fitness, log relative to wild type (ln ratio); higher = more splicing; Tetrahymena group I intron in knt gene, E. coli kanamycin selection, DiMSum; sequences stand for … in CUCUCU…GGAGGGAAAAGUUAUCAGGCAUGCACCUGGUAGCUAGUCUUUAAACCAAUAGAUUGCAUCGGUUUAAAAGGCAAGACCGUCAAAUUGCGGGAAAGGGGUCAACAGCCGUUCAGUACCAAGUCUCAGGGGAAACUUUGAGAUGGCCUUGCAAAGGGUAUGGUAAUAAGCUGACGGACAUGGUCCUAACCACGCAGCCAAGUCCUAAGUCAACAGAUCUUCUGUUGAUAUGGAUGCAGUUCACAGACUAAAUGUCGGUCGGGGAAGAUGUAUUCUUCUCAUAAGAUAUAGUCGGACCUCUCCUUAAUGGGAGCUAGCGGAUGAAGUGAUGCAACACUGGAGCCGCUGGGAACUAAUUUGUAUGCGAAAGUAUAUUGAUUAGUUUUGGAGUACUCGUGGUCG
- condition.context: 37 °C
reported.property: self-splicing fitness (ln)
One number for each entry.

AUUUAGCAAUAUUACGCUCG = 0.715
GGUUAGCAAUAUUACGGUUG = -1.57
AUCGAGCAAUAUUACGCUAG = -2.64
UCAGAGCAAUAUUACGCUUA = -2.48
GAGGAGCAAUAUUACGACAC = -0.696

Batch lookup, self-splicing fitness (ln) per entry.
1. UUCCAGCAAUAUUACGGGAG
2. UGUGAGCAAUAUUACGCGUU
3. ACGUAGCAAUAUUACGUGCG

Ans.
1. -1.77
2. -1.89
3. -1.17
